Data credit: patent US6982348B2

quantity.name: melting point

Lab note: measured melting point of CC(C)(C)OC(=O)N[C@H](Cc1cccc(OC(F)(F)C(F)F)c1)[C@@H](O)c1ccc(Oc2ccccn2)cc1 (racemic) was 130 to 131 °C

Lab note: measured melting point of O=C(N[C@H](Cc1ccc(C(F)(F)F)cc1)[C@@H](O)c1ccc(F)cc1)c1cccc2c1C=CCCC2 (racemic) was 197 to 198 °C

Lab note: measured melting point of CC(C)(C)c1ccc(C[C@@H](NC(=O)c2cccc3c(Cl)cccc23)[C@@H](O)c2cccc(Cl)c2)cc1 (racemic) was 112 to 113 °C

Lab note: measured melting point of O=C(N[C@H](Cc1ccc(C(F)(F)F)cc1)[C@@H](O)c1ccc(F)cc1)c1cccc2cc(F)ccc12 (racemic) was 223 to 224 °C

---

Task for the reader: assign each of the following compounds its reported melting point.

Lab note: measured melting point of O=C(N[C@H](Cc1ccc(C(F)(F)F)cc1)[C@@H](O)c1ccc(F)cc1)c1cccc2c1OCCCO2 (racemic) was 155 to 156 °C

Lab note: measured melting point of CC(C)(C)C(Cc1ccccc1)C(=O)N[C@H](Cc1ccc(C(F)(F)F)cc1)[C@@H](O)c1ccc(F)cc1 (mixture of isomers) was 175 to 176 °C

Lab note: measured melting point of O=C(N[C@H](Cc1cccc(OC(F)(F)C(F)F)c1)[C@@H](O)c1ccc(-c2ccccc2)cc1)c1cccc2c1C=CCCC2 (racemic) was 122 to 123 °C

Lab note: measured melting point of CC(C)(C)COc1cccc(C[C@@H](NC(=O)c2ccc(F)c3ccccc23)[C@@H](O)c2cccc(Cl)c2)c1 (racemic) was 165 to 166 °C

Lab note: measured melting point of CCCCc1ccc(C(=O)NC(Cc2ccc(C(F)(F)F)cc2)C(O)c2ccc(F)cc2)cc1 (racemic) was 138 to 158 °C

Lab note: measured melting point of COc1ccc([C@H](O)[C@@H](Cc2cccc(OC(F)(F)C(F)F)c2)NC(=O)c2cccc3c2C=CCCC3)cc1 (racemic) was 151 to 152 °C

Lab note: measured melting point of O=C(N[C@H](Cc1cccc(OC(F)(F)C(F)F)c1)[C@@H](O)c1ccc(Oc2cccnc2)cc1)c1ccc(F)c2ccccc12 (racemic) was 183 to 184 °C

Lab note: measured melting point of O=Cc1ccc(-c2ccc([C@H](O)[C@@H](Cc3cccc(OC(F)(F)C(F)F)c3)NC(=O)c3cccc4c3C=CCCC4)cc2)cc1 (racemic) was 174 to 176 °C

Lab note: measured melting point of O=C(N[C@H](Cc1ccc(C(F)(F)F)cc1)[C@@H](O)c1ccc(F)cc1)c1ccc(/C=C\c2ccccc2Cl)cc1 (racemic) was 153 to 154 °C

---

Structures can show the parent of a compound that is named as a salt.
quantity.name: melting point

Lab note: measured melting point of O=C(N[C@H](Cc1ccc(C(F)(F)F)cc1)[C@@H](O)c1ccc(F)cc1)C1CCCCC1 (racemic) was 203 to 204 °C

Lab note: measured melting point of O=C(O)CCC(=O)O[C@H](c1ccc(F)cc1)[C@H](Cc1cccc(OC(F)(F)C(F)F)c1)NC(=O)c1ccc(F)c2ccccc12 (racemic) (as salt: succinate) was 181 to 182 °C

Lab note: measured melting point of O=C(N[C@H](Cc1ccc(C(F)(F)F)cc1)[C@@H](O)c1ccccc1F)c1ccc(F)c2ccccc12 (racemic) was 190 to 191 °C

Lab note: measured melting point of O=C(N[C@H](Cc1ccc(C(F)(F)F)cc1)[C@@H](O)c1ccc(F)cc1F)c1ccc(F)c2ccccc12 (racemic) was 194 to 195 °C

Lab note: measured melting point of O=C(N[C@H](Cc1cccc(OC(F)(F)C(F)F)c1)[C@@H](O)c1ccc(F)cc1)c1cccc2c1C=CCCCC2 (racemic) was 189 to 190 °C

---

Task for the reader: assign each of the following molecules its reported melting point.

Lab note: measured melting point of O=C(N[C@H](Cc1ccc(C(F)(F)F)cc1)[C@@H](O)c1cccc2ccccc12)C1CCCCC1 (racemic) was 156 to 157 °C

Lab note: measured melting point of O=C(N[C@H](Cc1cccc(OC(F)(F)C(F)F)c1)[C@@H](O)c1ccc(-c2cccc(CO)c2)cc1)c1cccc2c1C=CCCC2 (racemic) was 178 to 179 °C

Lab note: measured melting point of O=C(N[C@H](Cc1cccc(OC(F)(F)C(F)F)c1)[C@@H](O)c1ccc(F)cc1)c1cccc2c(F)cccc12 (racemic) was 178 to 180 °C

Lab note: measured melting point of O=C(N[C@H](Cc1ccc(C(F)(F)F)c(F)c1)[C@@H](O)c1ccc(F)cc1)c1ccc(F)c2ccccc12 (racemic) was 212 to 213 °C

Lab note: measured melting point of O=C(N[C@H](Cc1cccc(OC(F)(F)C(F)F)c1)[C@@H](O)c1ccc(OCCCOc2ccccc2)cc1)c1cccc2c1C=CCCC2 (racemic) was 142 to 143 °C

Lab note: measured melting point of CC(C)(C)OC(=O)N[C@H](Cc1cccc(C(F)C(C)(C)F)c1)[C@@H](O)c1ccc(F)cc1 (mixture of isomers) was 148 to 149 °C

Lab note: measured melting point of O=C(N[C@H](Cc1cccc(OC(F)(F)C(F)F)c1)[C@@H](O)c1ccc(F)nc1)c1ccc(F)c2ccccc12 (racemic) was 148 to 149 °C

Lab note: measured melting point of O=C(N[C@H](Cc1cccc(C(=O)C(F)(F)C(F)F)c1)[C@@H](O)c1ccc(F)cc1)c1cccc2c(Cl)cccc12 (racemic) was 154 to 155 °C

Lab note: measured melting point of Cc1cc(C)c(C(=O)NC(Cc2ccc(C(F)(F)F)cc2)C(O)c2ccc(F)cc2)c(C)c1 (racemic) was 141 to 143 °C

Lab note: measured melting point of O=C(N[C@H](Cc1ccc(C(F)(F)F)cc1)[C@@H](O)c1ccc(F)cc1)c1cccc2c1CCCCC2 (racemic) was 210 to 211 °C

Lab note: measured melting point of CC(C)(C)Oc1ccc(C[C@@H](NC(=O)c2cccc3c(Cl)cccc23)[C@@H](O)c2cccc(Cl)c2)cc1 (racemic) was 132 to 133 °C

Lab note: measured melting point of CC1=Cc2c(cccc2C(=O)N[C@H](Cc2cccc(OC(F)(F)C(F)F)c2)[C@@H](O)c2ccc(F)cc2)CCC1 (racemic) was 149 to 150 °C

Lab note: measured melting point of O=C(NC(Cc1ccc(C(F)(F)F)cc1)C(O)c1ccc(F)cc1)C1CCCCC1 (racemic) was 161 to 178 °C

---

Task for the reader: assign each of the following molecules its reported melting point.

Lab note: measured melting point of O=C(N[C@H](Cc1cccc(OC(F)(F)C(F)F)c1)[C@@H](O)c1cccc(F)n1)c1ccc(F)c2ccccc12 (racemic) [Example 266] was 185 to 186 °C

Lab note: measured melting point of COc1ccc(C[C@@H](NC(=O)c2ccc(F)c3ccccc23)[C@@H](O)c2ccc(F)cc2)cc1 (racemic) [Example 149] was 210 to 211 °C

Lab note: measured melting point of O=C(N[C@@H](Cc1ccc(C(F)(F)F)cc1)[C@H](O)c1ccc(F)cc1)c1ccc(C(F)F)c2ccccc12 [Example 64] was 212 to 213 °C

Lab note: measured melting point of COc1cccc(-c2ccc([C@H](O)[C@@H](Cc3cccc(OC(F)(F)C(F)F)c3)NC(=O)c3cccc4c3C=CCCC4)cc2)c1 (racemic) [Example 298] was 79 to 81 °C

Lab note: measured melting point of CC(C)(C)OC(=O)N[C@H](Cc1ccc(CC(F)(F)C(F)(F)F)cc1)[C@@H](O)c1cccc(Cl)c1 (racemic) [Example 372] was 156 to 157 °C

---

Counter-ions that a name gives are not always drawn.
Task for the reader: assign each of the following molecules its reported melting point.

Lab note: measured melting point of CC(C)(C)OC(=O)N[C@H](Cc1ccc(C#N)cc1)[C@@H](O)c1ccc(F)cc1 (racemic) was 203 to 204 °C

Lab note: measured melting point of O=C(N[C@H](Cc1ccc(C(F)(F)F)cc1)[C@@H](O)c1ccc(F)cc1)c1ccc(F)c2ccccc12 (racemic) was 210 to 211 °C

Lab note: measured melting point of COc1ccc2c(C(=O)N[C@H](Cc3ccc(C(F)(F)F)cc3)[C@@H](O)c3ccc(F)cc3)cccc2c1 (racemic) was 193 to 194 °C

Lab note: measured melting point of CC(C)(C)Cc1ccc(C[C@@H](NC(=O)c2cccc3c(Cl)cccc23)[C@@H](O)c2cccc(Cl)c2)cc1 (racemic) was 168 to 169 °C

Lab note: measured melting point of O=C(N[C@H](Cc1ccc(C(F)(F)F)cc1)[C@@H](O)c1ccc(F)cc1)c1ccc([N+](=O)[O-])c2c1CCCC2 (racemic) was 207 to 209 °C

Lab note: measured melting point of O=C(CBr)N[C@H](Cc1ccc(C(F)(F)F)cc1)[C@@H](O)c1ccc(F)cc1 (racemic) was 151 to 152 °C

Lab note: measured melting point of O=C(N[C@H](Cc1ccc(C(F)(F)F)cc1)[C@@H](O)c1cccc(Oc2ccccc2)c1)c1ccc(F)c2ccccc12 (racemic) was 184 to 185 °C

Lab note: measured melting point of O=C(CCCc1ccccc1)N[C@H](Cc1ccccc1C(F)(F)F)[C@@H](O)c1ccc(F)cc1 (racemic) was 161 to 162 °C

Lab note: measured melting point of O=C(CCCc1ccccc1)N[C@H](Cc1cccc(C(F)(F)F)c1)[C@@H](O)c1ccc(F)cc1 (racemic) was 110 to 111 °C

Lab note: measured melting point of COc1ccc(C[C@@H](NC(=O)CCCc2ccccc2)[C@@H](O)c2ccc(F)cc2)cc1 (racemic) was 130 to 131 °C

Lab note: measured melting point of O=C(N[C@H](Cc1ccc(C(F)(F)F)cc1)[C@@H](O)c1ccc(F)cc1)c1cccc2c1CCCC2 (racemic) was 219 to 221 °C

Lab note: measured melting point of CC(C)(F)C(F)c1cccc(C[C@@H](NC(=O)c2cccc3c2C=CCCC3)[C@@H](O)c2ccc(F)cc2)c1 (mixture of isomers) was 102 to 104 °C

Lab note: measured melting point of CC(C)(C)COc1cccc(C[C@@H](NC(=O)c2cccc3c2C=CCCC3)[C@@H](O)c2cccc(Cl)c2)c1 (racemic) was 128 to 129 °C

Lab note: measured melting point of O=C(N[C@H](Cc1cccc(C(F)(F)F)c1)[C@@H](O)c1ccc(F)cc1)c1cccc2ccccc12 (racemic) was 158 to 159 °C

Lab note: measured melting point of COCc1oc(-c2ccccc2)c(C(=O)N[C@H](Cc2ccc(C(F)(F)F)cc2)[C@@H](O)c2ccc(F)cc2)c1-c1ccc(F)cc1 (racemic) was 204 to 206 °C

Lab note: measured melting point of O=C(N[C@H](Cc1cccc(OC(F)(F)C(F)F)c1)[C@@H](O)c1ccc(Cl)cc1)c1cccc2c1C=CCCC2 (racemic) was 182 to 183 °C

Lab note: measured melting point of O=C(CCc1ccccc1)N[C@H](Cc1ccc(C(F)(F)F)cc1)[C@@H](O)c1ccc(Cl)nc1 (racemic) was 149 to 150 °C

Lab note: measured melting point of O=C(N[C@H](Cc1ccc(C(F)(F)F)cc1)[C@H](O)c1ccc(F)cc1)c1cccc2ccccc12 (racemic) was 134 to 135 °C

Lab note: measured melting point of CC(C)c1ccc(C[C@@H](NC(=O)c2cccc3c2C=CCCC3)[C@@H](O)c2ccc(F)cc2)cc1 (racemic) was 168 to 169 °C

Lab note: measured melting point of Nc1ccc([C@H](O)[C@@H](Cc2cccc(OC(F)(F)C(F)F)c2)NC(=O)c2cccc3c2C=CCCC3)cc1 (racemic) was 153 to 155 °C

Lab note: measured melting point of O=C(CC(F)(F)F)N[C@H](Cc1ccc(C(F)(F)F)cc1)[C@@H](O)c1ccc(F)cc1 (racemic) was 179 to 180 °C

Lab note: measured melting point of O=C(O)CCC(=O)O[C@H](c1ccc(F)cc1)[C@H](Cc1ccc(C(F)(F)F)cc1)NC(=O)c1cccc2c(Cl)cccc12 (racemic) (as salt: succinate) was 228 to 229 °C

Lab note: measured melting point of CC(C)(C)OC(=O)NCC(=O)O[C@H](c1ccc(F)cc1)[C@H](Cc1cccc(OC(F)(F)C(F)F)c1)NC(=O)c1cccc2c1C=CCCC2 (racemic) was 151 to 152 °C

Lab note: measured melting point of CC(C)c1cccc(C[C@@H](NC(=O)c2cccc3c2C=CCCC3)[C@@H](O)c2ccc(F)cc2)c1 (racemic) was 165 to 167 °C

Lab note: measured melting point of O=C(N[C@H](Cc1cnc(C(F)(F)F)s1)[C@@H](O)c1ccc(F)cc1)c1ccc(F)c2ccccc12 (racemic) was 197 to 198 °C
